conditions: 298.15 K; 101.33 kPa; Liquid
Give mass density for every item shown.
Express it in kg/m3; write the number only.

Quick one: mass density for `C1CCCCC1` ?
773.8

What value of mass density has been recorded for this entry: CCOS(=O)(=O)[O-].CCn1cc[n+](C)c1 [1-ethyl-3-methylimidazolium ethyl sulfate]
1237.23

Quick check: mass density of `c1ccccc1` ?
873.57

Form field: reported mass density of `CC1CCCCC1`
765.02

Any idea what its mass density is? The compound is `C1CCCCCCC1`
831.47

---

test: refractive index (Na D-line) (dimensionless); conditions: 298.15 K; 101.33 kPa; Liquid; Standard Abbe refractometry
readout label: refractive index
Reply with the value as a number alone.

Which refractive index is listed for c1ccccc1 [benzene] ?
1.49774

Please report the recorded refractive index for C1CCCCC1 [cyclohexane] .
1.4236

I am curious: what refractive index value has been reported for C1CCCCCCC1 [cyclooctane] ?
1.45598

Data request, read-out refractive index, for CCOS(=O)(=O)[O-].CCn1cc[n+](C)c1 [1-ethyl-3-methylimidazolium ethyl sulfate]
1.4791

Need refractive index, item CC1CCCCC1 [methylcyclohexane]
1.42062
